# target-under-test: porcine pancreatic elastase (Sus scrofa)
# Sequence (P00772 27-266): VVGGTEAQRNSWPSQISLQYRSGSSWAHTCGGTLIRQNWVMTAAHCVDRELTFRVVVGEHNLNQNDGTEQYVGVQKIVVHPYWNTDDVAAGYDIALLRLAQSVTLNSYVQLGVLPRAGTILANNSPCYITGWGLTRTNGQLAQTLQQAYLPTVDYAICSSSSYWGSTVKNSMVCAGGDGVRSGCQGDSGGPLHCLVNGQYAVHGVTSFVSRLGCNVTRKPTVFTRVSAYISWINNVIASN
# assay-details: Elastase inhibition assay
# Format: biochemical
readout-name: IC50 (µM)

INSERT INTO results (compound, measure_unit, reported_value) VALUES
  ('C[C@H]1[C@H](C)CC[C@]2(C(=O)O)CC[C@]3(C)C(=CC[C@@H]4[C@@]5(C)CC[C@H](O)C(C)(C)[C@@H]5CC[C@]43C)[C@H]12', 'µM', 23.6);
